Please respond with reported polymerase ribozyme fitness (log ratio) for every item in the list.
B1: TPR 5TU (parent)
chain: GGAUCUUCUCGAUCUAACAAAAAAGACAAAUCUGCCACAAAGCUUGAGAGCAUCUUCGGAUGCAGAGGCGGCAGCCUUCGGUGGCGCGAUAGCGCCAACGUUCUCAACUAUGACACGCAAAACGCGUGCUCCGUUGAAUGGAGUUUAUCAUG

# Variants of: B1
# PROCEDURE_TEXT: polymerase ribozyme fitness, log enrichment relative to wild type (log ratio); higher = more active; in vitro selection for triplet polymerase activity
Fewer inactive variants are shown than the library holds.

Known polymerase ribozyme fitness (log ratio) results, listed for orientation:
1) A12G G92C A107G G133U	≤ -4.2
2) C8G A24G C76A U139A A142C U144C U148G	≤ -4.2
3) U9G A21U A24G C72U A147C	≤ -4.2

// each listed variant needs a value for polymerase ribozyme fitness (log ratio)
1. A21U U55A C93G A97U A115U
2. U56C U78G C85U A89G
3. A12C G25U C51G C72G C118G
4. G50U G84A U148G
5. A64C G83C G141A
6. A24C G42A A52G U55A C76U C123G G126A

1. ≤ -4.2
2. ≤ -4.2
3. ≤ -4.2
4. ≤ -4.2
5. ≤ -4.2
6. ≤ -4.2
